- measured.target: Muscarinic acetylcholine receptor M4 (Homo sapiens)
- Sequence (P08173 whole entry): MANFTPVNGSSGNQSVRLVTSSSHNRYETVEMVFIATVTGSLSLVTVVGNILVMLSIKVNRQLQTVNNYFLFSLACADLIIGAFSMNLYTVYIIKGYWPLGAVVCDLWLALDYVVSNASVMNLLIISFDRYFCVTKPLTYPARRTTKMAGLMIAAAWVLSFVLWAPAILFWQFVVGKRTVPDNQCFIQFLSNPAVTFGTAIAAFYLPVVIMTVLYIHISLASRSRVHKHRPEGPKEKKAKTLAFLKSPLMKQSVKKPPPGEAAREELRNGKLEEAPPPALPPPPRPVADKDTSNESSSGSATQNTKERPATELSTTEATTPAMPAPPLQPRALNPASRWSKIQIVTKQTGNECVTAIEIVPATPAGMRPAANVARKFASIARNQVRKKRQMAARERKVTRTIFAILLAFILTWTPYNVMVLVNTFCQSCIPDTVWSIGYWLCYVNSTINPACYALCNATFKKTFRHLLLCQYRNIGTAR
- test.summary: Displacement of [3H]-4-DAMP from human muscarinic M4 receptor expressed in BHK-21 cells
- Format: cell-based
value.kind: Ki (µM)

mol_smiles=O=C(Cc1ccccc1)NC1CCN(CCCN2C(=O)COc3ccccc32)CC1 value_kind=Ki data_value=6.9

* * *

- measured.target: Muscarinic acetylcholine receptor M1 (Homo sapiens)
- Sequence (P11229 whole entry): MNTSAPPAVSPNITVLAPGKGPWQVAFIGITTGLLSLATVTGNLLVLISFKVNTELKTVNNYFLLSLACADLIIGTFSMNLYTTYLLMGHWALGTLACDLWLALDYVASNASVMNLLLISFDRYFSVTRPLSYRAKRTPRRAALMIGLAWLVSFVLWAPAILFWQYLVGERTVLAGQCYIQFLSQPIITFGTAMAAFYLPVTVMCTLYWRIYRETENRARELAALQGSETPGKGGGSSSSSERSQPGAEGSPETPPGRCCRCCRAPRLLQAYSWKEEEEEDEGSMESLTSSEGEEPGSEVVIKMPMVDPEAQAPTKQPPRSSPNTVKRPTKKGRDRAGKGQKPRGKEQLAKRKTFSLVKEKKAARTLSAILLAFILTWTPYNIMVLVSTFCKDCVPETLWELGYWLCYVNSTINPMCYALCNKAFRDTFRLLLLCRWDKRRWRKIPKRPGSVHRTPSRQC
value.kind: Ki

mol_smiles=O=C(Cc1ccccc1)NC1CCN(CCCN2C(=O)COc3ccccc32)CC1 measured_target="Muscarinic acetylcholine receptor M1 (Homo sapiens)" data_value="≥ 1000 nM"
